# Tested on: MCF7
# assay-details: Antiproliferative activity against human MCF7 cells expressing CYP1A1 assessed as cell growth inhibition incubated for 48 hrs by sulforhodamine B assay
# Assay type: functional, cell-based
# measurement-parameters: MCF7, 48 h
observable: IC50

CCCCCN1CCN(c2ccc(S(=O)(=O)Oc3ccccc3)cc2)C1=O | > 25000 nM
CCCCCCN1CCN(c2ccc(S(=O)(=O)Oc3ccccc3)cc2)C1=O | > 2500 nM
CCCCCCN1CCN(c2ccc(S(=O)(=O)Oc3cccc(I)c3)cc2)C1=O | 1100 nM

Hi team, please reply with IC50 for each item in this list.
1. CCCCCCCCN1CCN(c2ccc(S(=O)(=O)Oc3cc(Br)cc(Br)c3)cc2)C1=O
2. CCCCCCN1CCN(c2ccc(S(=O)(=O)Oc3cccc(F)c3)cc2)C1=O
3. CCCCCCN1CCN(c2ccc(S(=O)(=O)Oc3cc(Cl)cc(Cl)c3)cc2)C1=O
4. CCCCCCCCN1CCN(c2ccc(S(=O)(=O)Oc3cc(OC)cc(OC)c3)cc2)C1=O
5. CCCCCCCCN1CCN(c2ccc(S(=O)(=O)Oc3cccc(I)c3)cc2)C1=O

Result:
["> 1250 nM", "> 2500 nM", "250 nM", "> 2500 nM", "> 1250 nM"]

Where do these numbers come from? They come from ChEMBL document CHEMBL5316344.
